target: P2Y purinoceptor 1 (Meleagris gallopavo); experiment: Inhibitory concentration against P2Y1 receptor in turkey erythrocyte membranes
Sequence (P49652 whole entry): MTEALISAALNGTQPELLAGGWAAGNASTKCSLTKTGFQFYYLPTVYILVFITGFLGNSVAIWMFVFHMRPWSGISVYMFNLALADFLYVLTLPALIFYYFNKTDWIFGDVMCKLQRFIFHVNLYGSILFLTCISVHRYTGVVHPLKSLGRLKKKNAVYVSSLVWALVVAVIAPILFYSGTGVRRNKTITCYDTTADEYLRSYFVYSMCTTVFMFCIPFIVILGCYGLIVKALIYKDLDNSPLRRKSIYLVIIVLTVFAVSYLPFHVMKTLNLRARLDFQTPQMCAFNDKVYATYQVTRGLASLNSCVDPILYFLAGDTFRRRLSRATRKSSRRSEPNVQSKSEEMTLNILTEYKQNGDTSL
Doc: threshold 2000 nM (exclusive). Items with IC50 beneath it return TRUE; others return FALSE.

The following compounds have reported results that may help.
> print(dat)
                                   compound  label
1  CNc1nc(Cl)nc2c1ncn2CC1[C@H](COP(=O)(O)O)[C@H]1COP(=O)(O)O (stereo partly drawn)  FALSE
2  CNc1nc(Cl)nc2c1ncn2CC(COP(=O)(O)O)COP(=O)(OC)OC (stereo not drawn)  FALSE
3  CNc1nc(Cl)nc2c1ncn2CC(COC(C)=O)COP(=O)(O)O (stereo not drawn)  FALSE
4  CNc1ncnc2c1ncn2CCC(COP(=O)(O)O)COP(=O)(O)O   TRUE
5  CNc1nc(Cl)nc2c1ncn2CC(CO)COP(=O)(O)O (stereo not drawn)  FALSE

// switching to the query compound
(Q) Determine if `CNc1nc(Cl)nc2c1ncn2CCC(COP(=O)(O)O)COP(=O)(O)O` shows IC50 strictly lower than 2000 nM.
(A) TRUE

---

A collection of compounds and their measured Activity
biological target: UniProtKB P49652; experiment: In vitro antagonist activity against turkey P2Y1 receptor, expressed as percent of maximal inhibition at 100 uM; format: functional; design: scale not given: the % may be the effect or the level left

// solved cases for Activity follow
> print(dat)
                                   compound  measuredvalue
1  CNc1nc(Cl)nc2c1ncn2C[C@H]1[C@H](COP(=O)(O)O)[C@@H]1COP(=O)(O)O           100%
2  CNc1nc(Cl)nc2c1ncn2C1CC1(COP(=O)(O)O)COP(=O)(O)O (stereo not drawn)           100%

Next up:
(Q) Entry `CNc1ncnc2c1ncn2CC(COP(=O)(O)O)COP(=O)(O)O` , system UniProtKB P49652: what Activity was measured?
(A) 100%

---

Recorded pIC50 for the following compounds
target: P2Y purinoceptor 1 (Meleagris gallopavo); assay: Inhibitory concentration against P2Y1 receptor in turkey erythrocyte membranes
In plain terms, pIC50 is the concentration in mol/L turned into minus its base-10 logarithm.

> print(dat)
                                   compound                                  testedon  measuredvalue
1  CNc1nc(Cl)nc2c1ncn2CC=C(COP(=O)(O)O)COP(=O)(O)O  P2Y purinoceptor 1 (Meleagris gallopavo)           5.68

(Q) Tell me the measured pIC50 of CNc1nc(Cl)nc2c1ncn2C1CC1(COP(=O)(O)O)COP(=O)(O)O (configuration not stated) , please.
(A) 5.63

(Q) Can you share its pIC50? I mean this compound: `CNc1nc(Cl)nc2c1ncn2C[C@@H](COP(=O)(O)O)OP(=O)(O)O`
(A) 5.83

---

Recorded pIC50 by entry
molecular target: UniProt:P49652; assay: Inhibitory concentration against P2Y1 receptor in turkey erythrocyte membranes
Bear in mind: pIC50 is minus log10 of a mol/L concentration; give just that figure.

> print(dat)
                                   compound  measuredmetric  measuredvalue
1  CNc1nc(Cl)nc2c1ncn2C[C@H]1[C@H](COP(=O)(O)O)[C@@H]1COP(=O)(O)O           pIC50           5.76

(Q) What does the data say about its pIC50? Entry: `CNc1nc(Cl)nc2c1ncn2C[C@H](COP(=O)(O)O)OP(=O)(O)O`
(A) 5.10

(Q) I have this compound here, `CNc1nc(Cl)nc2c1ncn2CC(COP(=O)(O)O)COP(=O)(O)O` , and I need its recorded pIC50.
(A) 6.32

(Q) What value of pIC50 has been reported for the following compound? CNc1nc(Cl)nc2c1ncn2CC(COP(=O)(O)O)COP(=O)(O)OP(=O)(O)O (centres undefined)
(A) 6.64

Source listed as ChEMBL document CHEMBL1134593.
